# assayed.target: panel of more than 300 wild-type and mutant kinases (313 kinase panel) (Homo sapiens, UniProt Q9Y5S2)
# assay.name: Kinase profiling in a biochemical assay panel (mobility shift assays and ELISA), %-inhibition at 1 μM; selectivity entropy
# assay.conditions: kinase MRCKβ; 1 μM
Recorded %-inhibition of MRCKβ by entry

# compound, output.unit, %-inhibition of MRCKβ
records = [
    ("COc1cc2nccc(Oc3ccc(NC(=O)C4(C(=O)Nc5ccc(F)cc5)CC4)cc3)c2cc1OC [cabozantinib]", "%", -3),
    ("C[C@@H](Oc1cc(-c2cnn(C3CCNCC3)c2)cnc1N)c1c(Cl)ccc(F)c1Cl", "%", -2),
    ("CNC(=O)c1cc(Oc2ccc(NC(=O)Nc3ccc(Cl)c(C(F)(F)F)c3)c(F)c2)ccn1", "%", -17),
    ("COc1cc2c(Nc3ccc(Br)cc3F)ncnc2cc1OCC1CCN(C)CC1", "%", -16),
    ("Cc1ccc(C(=O)Nc2ccc(CN3CCN(C)CC3)c(C(F)(F)F)c2)cc1C#Cc1cnc2cccnn12", "%", 1.18),
    ("CC(C)(C)c1nc(-c2cccc(NS(=O)(=O)c3c(F)cccc3F)c2F)c(-c2ccnc(N)n2)s1", "%", -2.85),
    ("CO[C@H]1C[C@@H]2CC[C@@H](C)[C@@](O)(O2)C(=O)C(=O)N2CCCC[C@H]2C(=O)O[C@H]([C@H](C)C[C@@H]2CC[C@@H](OCCO)[C@H](OC)C2)CC(=O)[C@H](C)/C=C(\\C)[C@@H](O)[C@@H](OC)C(=O)[C@H](C)C[C@H](C)/C=C/C=C/C=C/1C", "%", 0.688),
    ("CS(=O)(=O)CCNCc1ccc(-c2ccc3ncnc(Nc4ccc(OCc5cccc(F)c5)c(Cl)c4)c3c2)o1", "%", -5),
    ("Cc1cn(-c2cc(NC(=O)c3ccc(C)c(Nc4nccc(-c5cccnc5)n4)c3)cc(C(F)(F)F)c2)cn1", "%", -10),
    ("CO[C@H]1C[C@@H]2CC[C@@H](C)[C@@](O)(O2)C(=O)C(=O)N2CCCC[C@H]2C(=O)O[C@H]([C@H](C)C[C@@H]2CC[C@@H](OC(=O)C(C)(CO)CO)[C@H](OC)C2)CC(=O)[C@H](C)/C=C(\\C)[C@@H](O)[C@@H](OC)C(=O)[C@H](C)C[C@H](C)/C=C/C=C/C=C/1C", "%", -4),
    ("CC(=O)Nc1cccc(-n2c(=O)n(C3CC3)c(=O)c3c(Nc4ccc(I)cc4F)n(C)c(=O)c(C)c32)c1", "%", -2.56),
    ("CCCS(=O)(=O)Nc1ccc(F)c(C(=O)c2c[nH]c3ncc(-c4ccc(Cl)cc4)cc23)c1F", "%", -5),
    ("Cc1ccc(Nc2nccc(N(C)c3ccc4c(C)n(C)nc4c3)n2)cc1S(N)(=O)=O", "%", 1.15),
    ("COc1cc(Nc2c(C#N)cnc3cc(OCCCN4CCN(C)CC4)c(OC)cc23)c(Cl)cc1Cl", "%", 66),
    ("N#CC[C@H](C1CCCC1)n1cc(-c2ncnc3[nH]ccc23)cn1", "%", 20),
]

Cited source: paper PMC3961306
